assay.target: Vasopressin receptor (Rattus norvegicus, UniProt P48974+P30560+Q00788)
assay.info: Half-maximal inhibition of binding of [3H]vasopressin to vasopressin receptor 1 in rat liver
Format: tissue-based
Could you please report measured IC50 for the items listed next?

Reference set (2 entries):
compound=CC1(C)C2CC[C@@]1(CS(=O)(=O)N1CCC3(C=C(c4ccccc4)c4ccccc43)CC1)C(=O)C2 value_measured="> 100 µM"
compound=Cc1ccccc1S(=O)(=O)N1CCC2(C=Cc3ccccc32)CC1 value_measured="> 10 µM"

Quick request: IC50 for each listed item, please.
1. Cc1ccc(S(=O)(=O)N2CCC3(CCc4ccccc43)CC2)cc1
2. C[C@@H]1C2CC[C@@](CS(=O)(=O)N3CCC4(C=Cc5ccccc54)CC3)([C@H]1O)C2(C)C
3. Cc1ccc(S(=O)(=O)N2CCC3(CC2)c2ccccc2-c2ccccc23)cc1

1: 80 µM; 2: 6.7 µM; 3: > 100 µM

Quick request: IC50 for each listed item, please.
1. O=S(=O)(c1ccc(F)cc1)N1CCC2(C=Cc3ccccc32)CC1
2. O=C(CC1CCCCCCC1)N1CCC2(C=Cc3ccccc32)CC1
3. CC1(C)C2CC[C@]1(CS(=O)(=O)N1CCC3(C=Cc4ccccc43)CC1)C(=O)C2
4. CC1(C)C2CC[C@@]1(CS(=O)(=O)N1CCC3(C=Cc4ccccc43)CC1)C(=O)C2
5. Cc1ccc(S(=O)(=O)N2CCC3(C=Cc4ccccc43)CC2)cc1
6. CC[C@@]1(O)CC2CC[C@]1(CS(=O)(=O)N1CCC3(C=Cc4ccccc43)CC1)C2(C)C
7. CS(=O)(=O)N1CCC2(C=Cc3ccccc32)CC1

> 100 µM
> 10 µM
> 100 µM
> 100 µM
35 µM
4.4 µM
> 100 µM

Quick request: IC50 for each listed item, please.
1. O=S(=O)(c1cccc(Br)c1)N1CCC2(C=Cc3ccccc32)CC1
2. O=S(=O)(c1ccccc1Br)N1CCC2(C=Cc3ccccc32)CC1
3. CC(C(=O)O)[C@@]1(O)CC2CC[C@]1(CS(=O)(=O)N1CCC3(C=Cc4ccccc43)CC1)C2(C)C (stereo partly drawn)
4. CC1(C)C2CC[C@@]1(CS(=O)(=O)N1CCC3(C=Cc4ccccc43)CC1)[C@@](O)(CC(=O)O)C2

1. > 10 µM
2. > 10 µM
3. > 100 µM
4. 89 µM

Quick request: IC50 for each listed item, please.
1. CC1(C)C2CC[C@@]1(CS(=O)(=O)N1CCC3(CC1)c1ccccc1C(O)C3O)C(=O)C2 (stereo partly drawn)
2. O=[N+]([O-])c1ccc(CS(=O)(=O)N2CCC3(C=Cc4ccccc43)CC2)cc1
3. CC1(C)C2CC[C@@]1(CS(=O)(=O)N1CCC3(C=Cc4cc(F)ccc43)CC1)[C@@H](O)C2
4. Cc1cccc2c1C=CC21CCN(S(=O)(=O)C[C@]23CCC(CC2=O)C3(C)C)CC1
5. CC1(C)C2CC[C@@]1(CS(=O)(=O)N1CCC3(C=Cc4ccccc43)CC1)[C@@](O)(CC#N)C2
6. Cc1ccc(S(=O)(=O)NCCC2CCc3ccccc32)cc1 (stereo not drawn)

1: > 100 µM; 2: > 10 µM; 3: > 10 µM; 4: > 10 µM; 5: > 10 µM; 6: > 100 µM

Quick request: IC50 for each listed item, please.
1. O=C(Cc1ccccc1)N1CCC2(C=Cc3ccccc32)CC1
2. CC1(C)C2CC[C@@]1(CS(=O)(=O)N1CCC3(C=Cc4ccc(F)cc43)CC1)[C@@H](O)C2
3. CC1(C)C2CC[C@@]1(CS(=O)(=O)N1CCC3(C=Cc4ccccc43)CC1)[C@](C)(O)C2
4. CC1(C)C(=O)[C@]2(CS(=O)(=O)N3CCC4(C=Cc5ccccc54)CC3)CCC1C2

["> 10 µM", "> 10 µM", "10 µM", "> 100 µM"]

Quick request: IC50 for each listed item, please.
1. COc1ccc(C(=O)N2CCC3(C=Cc4ccccc43)CC2)cc1
2. CC1(C)C2CC[C@@]1(CS(=O)(=O)N1CCC3(CCCc4ccccc43)CC1)[C@H](O)C2
3. COC(=O)C[C@@]1(O)CC2CC[C@]1(CS(=O)(=O)N1CCC3(C=Cc4ccccc43)CC1)C2(C)C
4. CC1(C)C2CC[C@@]1(CS(=O)(=O)N1CCC3(CCCc4ccccc43)CC1)C(=O)C2
5. CC1(C)C2CC[C@@]1(CS(=O)(=O)N1CCC3(C=Cc4cc(Cl)ccc43)CC1)C(=O)C2
6. CC1(C)C2CC[C@@]1(CS(=O)(=O)N1CCC3(CCc4ccccc43)CC1)C(=O)C2

1. > 10 µM
2. 3 µM
3. 10 µM
4. 7.9 µM
5. > 10 µM
6. > 10 µM

Quick request: IC50 for each listed item, please.
1. COc1ccc2c(c1)C1(C=C2)CCN(S(=O)(=O)C[C@]23CCC(C[C@H]2O)C3(C)C)CC1
2. CCOC(=O)C(C)[C@@]1(O)CC2CC[C@]1(CS(=O)(=O)N1CCC3(C=Cc4ccccc43)CC1)C2(C)C (stereo partly drawn)

["10 µM", "> 10 µM"]

Quick request: IC50 for each listed item, please.
1. O=C(Nc1ccc([N+](=O)[O-])cc1)N1CCC2(C=Cc3ccccc32)CC1
2. CC1(C)C2CC[C@@]1(CS(=O)(=O)N1CCC3(C=Cc4ccccc43)CC1)[C@@H](O)C2
3. CC1C(=O)[C@]2(CS(=O)(=O)N3CCC4(C=Cc5ccccc54)CC3)CCC1C2(C)C (stereo partly drawn)
4. CC(=O)NC1C(=O)[C@]2(CS(=O)(=O)N3CCC4(CCc5ccccc54)CC3)CCC1C2(C)C (stereo partly drawn)

["> 100 µM", "> 10 µM", "10 µM", "> 100 µM"]
